Below, each entry is listed with its recorded Percent Effect.
TESTED_SYSTEM: Aspartate--tRNA(Asp/Asn) ligase (Mycobacterium tuberculosis (strain ATCC 25618 / H37Rv))
ASSAY_NOTES: Assay for Asp RNA synthetase-1 from Mycobacterium tuberculosis
Assay type: functional
Set-up: scale not given: in the data most compounds retested in dose-response had high values
CONDITION: 30 µM

COMPOUND: CCc1cnc(N2C[C@H]3C[C@H](C(=O)N(C)C)[C@@H](C2)O3)nc1
Percent Effect [%]: -1.86
--
COMPOUND: Cc1cc(C[S+]([O-])CC(=O)NCC(C)C)no1 (centres undefined)
Percent Effect [%]: -2.03
--
COMPOUND: O=C(Nc1ccccc1)C1=CC2(CCNCC2)c2ccccc21
Percent Effect [%]: 1.3
--
COMPOUND: Cc1nn(C)c(C)c1C1COCCN1C(=O)c1cnc(N)c(Cl)c1 (centres undefined)
Percent Effect [%]: 0.88
--
COMPOUND: CN(C)CCN1C(=O)CCC12CCN(C(=O)c1cccnc1)CC2
Percent Effect [%]: -0.637
--
COMPOUND: CO[C@H]1CN(C(=O)c2ccccn2)[C@@H]2CCCO[C@H]12
Percent Effect [%]: 1.27
--
COMPOUND: CN(CC1CC1)C(=O)CN(Cc1cccc(O)c1)C1CCC(O)CC1 (centres undefined)
Percent Effect [%]: -0.296
--
COMPOUND: Cc1nc(Nc2nccs2)cc(C2CCCN2C2CCOCC2)n1 (centres undefined)
Percent Effect [%]: -3.08
--
COMPOUND: O=C(c1ccccn1)N1CCc2c(nc(N3CCCC3)[nH]c2=O)C1
Percent Effect [%]: -2.28
--
COMPOUND: Cc1cc(C(=O)NCc2ccc(N3CCCC(C(N)=O)C3)cc2)no1 (centres undefined)
Percent Effect [%]: -6.8
--
COMPOUND: CCOCC(O)CN1CCN(C(=O)CC(C)(C)C)CC1 (centres undefined)
Percent Effect [%]: -3.73
--
COMPOUND: Cc1ccc(NCc2cncc3c2CCN(C(=O)C2CC=CC2)C3)nn1
Percent Effect [%]: 6.32
--
COMPOUND: Cc1nc(COCc2cnc3n2CCN(CC2CCC2)C3C)cs1 (centres undefined)
Percent Effect [%]: -6
--
COMPOUND: CN(C(=O)Cn1nc(-c2ccc(F)cc2)oc1=O)C1CCS(=O)(=O)C1 (centres undefined)
Percent Effect [%]: 4.6
--
COMPOUND: Cc1c[nH]c(CN(C)c2nc(C3CCCC3)nc3c2cnn3C)n1
Percent Effect [%]: 0.0557
--
COMPOUND: Cn1cc(CN2CCCC3(CCN(c4nncs4)C3)C2)cn1 (centres undefined)
Percent Effect [%]: 6.31
--
COMPOUND: CN(Cc1ccccn1)C1COC2(CCN(Cc3cccnc3)CC2)C1 (centres undefined)
Percent Effect [%]: -2.07
--
COMPOUND: CC1CCN(C(=O)c2cccc3ncccc23)CC1
Percent Effect [%]: -1.51
--
COMPOUND: CN(Cc1cnn(C)c1)C(=O)NCc1csc(Br)c1
Percent Effect [%]: 4.08
--
COMPOUND: O=C(NCC(F)(F)F)C1=NOC2(CCCNC2)C1 (centres undefined)
Percent Effect [%]: 1.78
--
COMPOUND: CC(C)SCC(=O)N1CCc2c(nc(N(C)C)nc2N(C)C)C1
Percent Effect [%]: -3.12
--
COMPOUND: CCc1ccc(NC(=O)c2cnc(N3CCN(C)CC3)nc2C)cc1
Percent Effect [%]: -0.248
--
COMPOUND: Cc1cc(CC(=O)NCc2ccnc(OCC(F)(F)F)c2)no1
Percent Effect [%]: -6.06
--
COMPOUND: Cc1nn(C)c(N2CCOCC2)c1CNC1CCOc2ccccc21 (centres undefined)
Percent Effect [%]: -2.83

* * *

TESTED_SYSTEM: Aspartate--tRNA(Asp/Asn) ligase (Mycobacterium tuberculosis (strain ATCC 25618 / H37Rv)) (UniProt P9WFW3)
Sequence (P9WFW3 whole entry): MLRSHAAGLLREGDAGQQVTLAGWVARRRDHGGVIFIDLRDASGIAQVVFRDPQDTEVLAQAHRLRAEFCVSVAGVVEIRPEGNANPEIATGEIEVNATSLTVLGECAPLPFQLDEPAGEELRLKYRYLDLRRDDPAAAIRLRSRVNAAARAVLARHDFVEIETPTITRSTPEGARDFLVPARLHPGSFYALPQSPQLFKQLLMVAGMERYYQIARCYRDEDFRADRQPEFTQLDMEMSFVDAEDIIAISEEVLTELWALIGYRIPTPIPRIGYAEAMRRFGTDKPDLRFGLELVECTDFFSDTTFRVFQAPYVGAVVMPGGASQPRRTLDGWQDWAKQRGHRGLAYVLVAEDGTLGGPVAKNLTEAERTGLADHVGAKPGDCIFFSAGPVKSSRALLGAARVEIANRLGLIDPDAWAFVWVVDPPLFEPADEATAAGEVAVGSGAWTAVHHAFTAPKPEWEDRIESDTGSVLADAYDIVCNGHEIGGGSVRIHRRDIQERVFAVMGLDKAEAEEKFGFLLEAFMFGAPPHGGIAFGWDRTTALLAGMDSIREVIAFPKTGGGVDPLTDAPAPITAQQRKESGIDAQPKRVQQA
ASSAY_NOTES: Assay for Asp RNA synthetase-1 from Mycobacterium tuberculosis
Format: functional
Parameters: scale not given: in the data most compounds retested in dose-response had high values
CONDITION: 30 µM
MEASUREMENT_TYPE: Percent Effect (%)

COMPOUND: Cc1nccn1Cc1nnc(C2CCCN(Cc3cccnc3)C2)n1C (stereo unspecified)
VALUE_REPORTED: -2.79

COMPOUND: COc1cccc(CN2C[C@@H]3COC[C@]3(COCc3ccncc3)C2)c1
VALUE_REPORTED: 2.95

COMPOUND: Cn1ccnc1CN1CCOCC(Cc2ccccn2)C1 (stereo unspecified)
VALUE_REPORTED: -1.22

COMPOUND: N#CCSCCCN1CCCN(C(=O)c2ccccc2)CC1
VALUE_REPORTED: -4.83

COMPOUND: Cc1cccc(-n2cc(C(=O)N3CCn4c(C)nnc4C3)nn2)c1
VALUE_REPORTED: -2.42

COMPOUND: CCNc1cc2c(nn1)CCN(C(=O)c1ccc(CNC(C)=O)o1)C2
VALUE_REPORTED: 5.42

COMPOUND: Cc1ncsc1CN1CC[C@H]2C[C@H](c3ccncn3)O[C@@H]2C1
VALUE_REPORTED: 1.35

COMPOUND: CCOc1ccc(CC(CNC(=O)c2occc2C)C(N)=O)cc1 (stereo unspecified)
VALUE_REPORTED: 2.25

COMPOUND: CN1C(=O)CC(c2cnn(C)c2)C12CCN(C(=O)C1CC=CC1)CC2 (stereo unspecified)
VALUE_REPORTED: -2.73

COMPOUND: O=C(NCc1nncn1-c1ccccc1)C1CC(=O)N(CC2CC2)C1 (stereo unspecified)
VALUE_REPORTED: -2.56

COMPOUND: Cc1cc(CNC(=O)N2CCN(c3ccccc3)CC2)no1
VALUE_REPORTED: 1.31

* * *

TESTED_SYSTEM: Aspartate--tRNA(Asp/Asn) ligase (Mycobacterium tuberculosis (strain ATCC 25618 / H37Rv)) (UniProt P9WFW3)
ASSAY_NOTES: Assay for Asp RNA synthetase-1 from Mycobacterium tuberculosis
Assay type: functional
Design: scale not given: in the data most compounds retested in dose-response had high values
CONDITION: 30 µM
Form field: Percent Effect (one value per entry).

MOLECULE: Cc1cc(C)n(CCCNC(=O)[C@@H](C)NC(=O)OC(C)(C)C)n1
Percent Effect: 2.46%
--
MOLECULE: Cc1cccc(OCCC(=O)N(C)CCC#N)c1C
Percent Effect: 0.839%
--
MOLECULE: Cc1ccc(S(=O)(=O)NCCNC(=O)c2ccoc2)cc1F
Percent Effect: -4.4%
--
MOLECULE: CCNC(=O)c1ccc(N2CCCC(c3nccn3C(C)C)C2)nc1 (stereo unspecified)
Percent Effect: -3.8%
--
MOLECULE: COc1ccc(C2CC(=O)Nc3c2cnn3C)cc1 (stereo unspecified)
Percent Effect: -0.607%
--
MOLECULE: CCn1cc(NC(=O)C2CCN(CCOC(C)C)CC2)cn1
Percent Effect: 2.5%
--
MOLECULE: CC(=O)Nc1ncc(S(=O)(=O)Nc2ccc(F)cc2F)s1
Percent Effect: 2.53%
--
MOLECULE: Cc1ncnc2c1CCN(Cc1ccccn1)CC2
Percent Effect: 1.8%
--
MOLECULE: CCc1ncncc1C(=O)N1CCOC(c2nc(C)n[nH]2)C1 (stereo unspecified)
Percent Effect: -4.06%
--
MOLECULE: Cc1nc(C2CCCN2CCCS(=O)(=O)N(C)C)no1 (stereo unspecified)
Percent Effect: -1.34%
--
MOLECULE: O=C(Nc1cn[nH]c1)c1ccc(O)nc1
Percent Effect: -1.37%
--
MOLECULE: N#Cc1cccc(CN2CC[C@@H]3[C@@H]2CC(=O)N3Cc2cccnc2)c1
Percent Effect: 4.04%
--
MOLECULE: COCC1CN(C(=O)c2cccn2C)Cc2ncnn2C1 (stereo unspecified)
Percent Effect: 12.6%
--
MOLECULE: COCCc1noc(CN2CCOC(Cn3nc(C)cc3C)C2)n1 (stereo unspecified)
Percent Effect: -2.55%
--
MOLECULE: CCn1nc(C(=O)N2CCCC(n3cncn3)C2)ccc1=O (stereo unspecified)
Percent Effect: -5.19%
--
MOLECULE: CCOc1ncccc1C(=O)N(C)Cc1ncc(C)c(OC)c1C
Percent Effect: -0.375%
--
MOLECULE: CCN1CC2(CC1=O)CN(Cc1ccco1)CCN(C(=O)N(C)C)C2 (stereo unspecified)
Percent Effect: -2.71%
--
MOLECULE: O=C(CCNCC(F)(F)F)N1CCC(Nc2cccnn2)CC1
Percent Effect: 2.25%
--
MOLECULE: Cc1noc(C)c1CCC(=O)N1CCCN(Cc2cscn2)CC1
Percent Effect: -0.789%
--
MOLECULE: O=C(O)CCc1cccc(C2CCCN2Cc2ccc(F)c(F)c2)n1 (stereo unspecified)
Percent Effect: -0.372%
--
MOLECULE: COCc1nc2cc(NCc3ccc(C)o3)ccc2o1
Percent Effect: 25.1%
